Test system: Expi293 cells transfected with His-Halotag
TEST_SUMMARY: Library cell penetration assay, cell crash method (Example 6)
Assay type: in vitro ADME, human
EXPERIMENTAL_CONTEXT: MS signal of unconverted —Cl agent from cells, library pool or individual peptide
READOUT_TYPE: Peptide Signal in Cells (from cells; agents comprising —Cl)

{"SUBSTANCE": "HaloTagO2-Leu-Thr-Phe-ReN-Glu-Tyr-Trp-Ala-Gln-Cba-Az-Ser-Ala-Ala-NHMe [PEP000136]", "VALUE_OBSERVED": "0E+00"}
{"SUBSTANCE": "HaloTagO2-Leu-Thr-Phe-ReN-Glu-Tyr-Trp-Ala-Ala-Cba-Az-Ser-Ala-Ala-NHMe [PEP000135]", "VALUE_OBSERVED": "0E+00"}
{"SUBSTANCE": "HaloTagO2-Leu-Thr-Phe-ReN-Ala-Tyr-Trp-Ala-Gln-Cba-Az-Ser-Ala-Ala-NH2 [PEP000127]", "VALUE_OBSERVED": "0E+00"}
{"SUBSTANCE": "HaloTagO2-Leu-Thr-Phe-ReN-Glu-Tyr-Trp-Ala-Gln-Cba-Az-Ser-Ala-Ala-NH2 [PEP000128]", "VALUE_OBSERVED": "0E+00"}
{"SUBSTANCE": "HaloTagO2-Leu-Thr-Phe-ReN-Ala-Tyr-Trp-Ala-Gln-Cba-Az-Ser-Ala-Ala-NHMe [PEP000130]", "VALUE_OBSERVED": "5E+03"}
{"SUBSTANCE": "HaloTagO2-Leu-Thr-Phe-ReN-Thr-Tyr-Trp-Ala-Gln-Cba-Az-Ser-Ala-Ala-NH2 [PEP000129]", "VALUE_OBSERVED": "0E+00"}
{"SUBSTANCE": "HaloTagO2-Leu-Thr-Phe-ReN-Thr-Tyr-Trp-Ala-Gln-Cba-Az-Ser-Ala-Ala-NHMe [PEP000132]", "VALUE_OBSERVED": "0E+00"}
{"SUBSTANCE": "HaloTagO2-Leu-Thr-Phe-ReN-Glu-Tyr-Trp-Ala-Ala-Cba-Az-Ser-Ala-Ala-NH2 [PEP000133]", "VALUE_OBSERVED": "0E+00"}
{"SUBSTANCE": "HaloTagO2-Leu-Thr-Phe-ReN-Glu-Tyr-Trp-Ala-Thr-Cba-Az-Ser-Ala-Ala-NHMe [PEP000137]", "VALUE_OBSERVED": "0E+00"}
{"SUBSTANCE": "HaloTagO2-Leu-Thr-Phe-ReN-Glu-Tyr-Trp-Ala-Gln-Cba-Az-Ser-Ala-Ala-NHMe [PEP000131]", "VALUE_OBSERVED": "0E+00"}
{"SUBSTANCE": "HaloTagO2-Leu-Thr-Phe-ReN-Glu-Tyr-Trp-Ala-Thr-Cba-Az-Ser-Ala-Ala-NH2 [PEP000134]", "VALUE_OBSERVED": "3E+03"}
